molecular target: ΔF508-CFTR (Homo sapiens, UniProt P13569, DEL508-508); construct: host or cells: CFBE41o-, doxycycline-inducible; test: CFTR cell surface levels using HRP-tagged ΔF508-CFTR expressing CFBE cells, in the presence of a co-corrector; format: cell-based; settings: HRP-tagged ΔF508-CFTR CFBE cells, in the presence of 3 μM co-corrector; read-out: EC50
experimental.endpoint: pEC50
# reply with the number alone; pEC50 is -log10 of concentration in mol/L

compound	test.target	reported.result
CC(C)c1nn(-c2ccc(F)cc2)c2nc(C(=O)NS(C)(=O)=O)cc(OCC3COCCN3C(C)C)c12 (centres unmarked)	ΔF508-CFTR (Homo sapiens, UniProt P13569, DEL508-508)	6.03
COC1CCN(c2cc(C(=O)NS(C)(=O)=O)nc3c2c(C(C)C)nn3-c2cccc(N3CCOCC3)n2)CC1	ΔF508-CFTR (Homo sapiens, UniProt P13569, DEL508-508)	6.59
COCC1CCN(c2cc(C(=O)NS(=O)(=O)CCC(=O)O)nc3c2c(C2CCC2)nn3-c2ccccc2)CC1	ΔF508-CFTR (Homo sapiens, UniProt P13569, DEL508-508)	5.48
CC(C)c1nn(-c2cccc(N(C)C)c2)c2nc(C(=O)NS(C)(=O)=O)cc(-c3cnc(N4CCOCC4)nc3)c12	ΔF508-CFTR (Homo sapiens, UniProt P13569, DEL508-508)	6.32
COCCS(=O)(=O)NC(=O)c1cc(OCC2CCOCC2)c2c(C3CCC3)nn(-c3ccccc3)c2n1	ΔF508-CFTR (Homo sapiens, UniProt P13569, DEL508-508)	6.99

Dear colleague, I am looking for the recorded pEC50 of the following compound: CS(=O)(=O)NC(=O)c1cc(-c2ccc(N3CCC(C#N)CC3)nc2)c2c(OC3CCOC3)nn(-c3ccccc3)c2n1 (centres unmarked)
6.90

Similarly, "COC1CN(S(=O)(=O)NC(=O)c2cc(N3CCC(N4CCOCC4)CC3)c3c(C4CCC4)nn(-c4ccc(F)cc4)c3n2)C1" ?
6.85

Similarly, "O=C(NS(=O)(=O)CCO)c1cc(N2CCC(N3CCOCC3)CC2)c2c(C3CCC3)nn(-c3ccc(F)cc3)c2n1" ?
6.74

Similarly, COC1CC(CN2CCC(c3cc(C(=O)NS(C)(=O)=O)nc4c3c(C3CCC3)nn4-c3ccc(F)cc3)CC2)C(OC)O1 (centres unmarked) ?
6.24

Similarly, "CN(C)S(=O)(=O)NC(=O)c1cc(N2CCC(N3CCN(C4COC4)CC3)CC2)c2c(C3CCC3)nn(-c3ccc(F)cc3)c2n1" ?
6.89

---

molecular target: CFTR ΔF508 (Homo sapiens, UniProt P13569, DEL508-508); construct: bronchial epithelial cells isolated from CF patients homozygous for the CFTR ΔF508 mutation; McGill University; Asterand; University of North Carolina hAEC-CF; host or cells: primary human bronchial epithelial cells from CF patients homozygous for ΔF508, differentiated at air-liquid interface; test: Chronic TECC assay, primary bronchial epithelial cells of CF patients homozygous for CFTR ΔF508 (corrector, co-corrector and potentiator); assay type: cell-based; conditions: chronic TECC; test compound at 1 μM; AUC = full area under the curve upon forskolin stimulation
Sequence (P13569 with tags, fused parts or gaps DEL508-508): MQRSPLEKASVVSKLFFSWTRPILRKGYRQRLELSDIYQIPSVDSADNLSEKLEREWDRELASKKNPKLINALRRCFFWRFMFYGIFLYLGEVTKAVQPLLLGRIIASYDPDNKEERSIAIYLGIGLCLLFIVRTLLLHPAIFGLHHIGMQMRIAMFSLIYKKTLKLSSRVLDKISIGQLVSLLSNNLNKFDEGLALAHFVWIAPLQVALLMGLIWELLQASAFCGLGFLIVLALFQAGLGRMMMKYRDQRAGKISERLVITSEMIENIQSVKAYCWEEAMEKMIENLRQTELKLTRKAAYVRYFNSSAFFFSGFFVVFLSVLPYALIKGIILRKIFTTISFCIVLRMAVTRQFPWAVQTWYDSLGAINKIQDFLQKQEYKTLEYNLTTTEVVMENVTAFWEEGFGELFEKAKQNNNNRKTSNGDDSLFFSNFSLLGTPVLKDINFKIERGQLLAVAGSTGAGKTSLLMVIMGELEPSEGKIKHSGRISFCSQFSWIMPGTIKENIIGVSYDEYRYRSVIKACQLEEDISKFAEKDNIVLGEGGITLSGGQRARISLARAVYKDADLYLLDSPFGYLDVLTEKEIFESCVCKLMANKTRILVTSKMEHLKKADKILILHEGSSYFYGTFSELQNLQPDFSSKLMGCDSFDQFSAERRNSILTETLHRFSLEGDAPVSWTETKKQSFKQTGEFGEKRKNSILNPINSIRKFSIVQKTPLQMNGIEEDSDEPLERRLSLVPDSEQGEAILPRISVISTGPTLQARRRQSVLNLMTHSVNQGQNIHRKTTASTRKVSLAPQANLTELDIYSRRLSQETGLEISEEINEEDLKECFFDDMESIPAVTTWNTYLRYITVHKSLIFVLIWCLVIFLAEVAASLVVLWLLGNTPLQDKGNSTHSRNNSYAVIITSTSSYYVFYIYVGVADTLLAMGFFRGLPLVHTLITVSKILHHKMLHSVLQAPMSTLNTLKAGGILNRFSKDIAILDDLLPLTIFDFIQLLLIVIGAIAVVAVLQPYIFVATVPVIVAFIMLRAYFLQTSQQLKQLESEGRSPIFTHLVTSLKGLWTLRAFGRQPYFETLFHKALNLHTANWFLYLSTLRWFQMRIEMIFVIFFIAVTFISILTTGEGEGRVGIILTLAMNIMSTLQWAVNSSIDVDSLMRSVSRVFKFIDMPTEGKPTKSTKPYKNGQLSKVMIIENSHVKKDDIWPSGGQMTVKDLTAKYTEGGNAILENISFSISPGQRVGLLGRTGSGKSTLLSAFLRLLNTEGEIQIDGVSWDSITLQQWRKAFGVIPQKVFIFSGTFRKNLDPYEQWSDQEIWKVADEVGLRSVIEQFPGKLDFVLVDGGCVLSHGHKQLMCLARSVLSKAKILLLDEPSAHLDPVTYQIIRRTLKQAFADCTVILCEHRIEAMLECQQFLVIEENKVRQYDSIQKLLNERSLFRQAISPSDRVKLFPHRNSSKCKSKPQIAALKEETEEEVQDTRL
experimental.endpoint: % Activity at 1 μM (AUC**) (%)
# number only, unit % dropped from output

1. CC(C)c1nn(-c2ccc(F)cc2)c2nc(C(=O)NS(C)(=O)=O)cc(N3CCC(N4CCCCC4)CC3)c12 343.24
2. CN(C)S(=O)(=O)NC(=O)c1cc(N2CCC(N3CCC(F)CC3)CC2)c2c(C3CCC3)nn(-c3ccc(F)cc3)c2n1 477.2665

Find % Activity at 1 μM (AUC**) (CFTR ΔF508 (Homo sapiens, UniProt P13569, DEL508-508)) for the entry "O=C(NS(=O)(=O)N1CCOCC1)c1cc(N2CCC(N3CCN(C4CC4)CC3)CC2)c2c(C3CCC3)nn(-c3ccccc3)c2n1"
296.6667

---

Reported % Activation by item:
target: ΔF508-CFTR (Homo sapiens, UniProt P13569, DEL508-508); construct: host or cells: CFBE41o-, doxycycline-inducible; test: CFTR cell surface levels using HRP-tagged ΔF508-CFTR expressing CFBE cells, intrinsic corrector capacity; format: cell-based; set-up: concentration or dose not given beside the values; details: HRP-tagged ΔF508-CFTR expressing CFBE41o- cells; compound alone (intrinsic corrector capacity); 20 hours at 33° C.
# number only, unit % dropped from output

Dear colleague, I am looking for the recorded % Activation of the following compound: COCC1CCN(c2cc(C(=O)NS(=O)(=O)CCCN3CCCC3)nc3c2c(C(C)C)nn3-c2ccc(F)cc2)CC1 [Compound 291]
219.5

Similarly, COCCS(=O)(=O)NC(=O)c1cc(-c2ccc(N3CCOCC3)cc2)c2cnn(-c3ccccc3)c2n1 [Compound 233] ?
58.34

Similarly, CS(=O)(=O)NC(=O)c1cc(-c2ccc(N3CCC(C#N)CC3)nc2)c2c(C3CC(F)C3)nn(-c3ccccc3)c2n1 (stereo not shown) [Compound 197] ?
220.2

Similarly, CN(C)S(=O)(=O)NC(=O)c1cc(C2CCC(N3CCOCC3)CC2)c2c(C3CCC3)nn(-c3ccccc3)c2n1 (stereo not shown) [Compound 649] ?
69.12

Similarly, O=C(NS(=O)(=O)N1CCC(N2CCCCC2)CC1)c1cc(N2CCC(N3CCOCC3)CC2)c2c(C3CCC3)nn(-c3ccccc3)c2n1 [Compound 453] ?
149.3

Similarly, COCC1CCN(c2cc(C(=O)NS(=O)(=O)c3cn(C)cn3)nc3c2c(C2CCC2)nn3-c2ccccc2)CC1 [Compound 286] ?
264

Similarly, CN(C)S(=O)(=O)NC(=O)c1cc(N2CCC(CN3CCOCC3)CC2)c2c(C3CCC3)nn(C3CCCCC3)c2n1 [Compound 424] ?
249.25

---

Reported % Activation by item:
target: ΔF508-CFTR (Homo sapiens, UniProt P13569, DEL508-508); construct: host or cells: CFBE41o-, doxycycline-inducible; experiment: CFTR cell surface levels using HRP-tagged ΔF508-CFTR expressing CFBE cells, intrinsic corrector capacity; format: cell-based; set-up: concentration or dose not given beside the values; details: HRP-tagged ΔF508-CFTR expressing CFBE41o- cells; compound alone (intrinsic corrector capacity); 20 hours at 33° C.
Param answer (str): number followed by unit.

Please review the entries below; each comes with its answer.
compound	reported.result
Cc1nn(-c2cccc(C(F)(F)F)c2)c2nc(C(=O)NS(C)(=O)=O)cc(-c3ccc(N4CCOCC4)nc3)c12	219.65%
CS(=O)(=O)NC(=O)c1cc(N2CCC3(CCCCC3)CC2)c2c(C3CCC3)nn(-c3ccccc3)c2n1	65.685%
COCCOCC1(F)CCCN(c2cc(C(=O)NS(C)(=O)=O)nc3c2c(C(C)C)nn3-c2ccc(F)cc2)C1 (stereo not shown)	195.8%
CC(C)c1nn(-c2ccc(F)cc2)c2nc(C(=O)NS(C)(=O)=O)cc(C3CCN(C(=O)OC(C)(C)C)CC3)c12	160%

Find % Activation (ΔF508-CFTR (Homo sapiens, UniProt P13569, DEL508-508)) for the entry "CC(C)c1nn(-c2ccc(F)cc2)c2nc(C(=O)NS(C)(=O)=O)cc(-c3cnc(N(C)C4CCOCC4)nc3)c12"
229.87%

Similarly, "CC(C)Oc1nn(-c2ccccc2)c2nc(C(=O)NS(=O)(=O)C3CC3)cc(-c3ccc(N4CCOCC4)cc3)c12" ?
215.35%

Similarly, "O=C(c1cc(N2CCC(N3CCOCC3)CC2)c2c(C3CCC3)nn(-c3ccccc3)c2n1)N1CCCS1(=O)=O" ?
101.9%

Similarly, "Cc1cc(N2CCN(c3cc(C(=O)NS(=O)(=O)N(C)C)nc4c3c(C3CCC3)nn4C3CCCCC3)CC2)ccn1" ?
385.8%

Similarly, "CC(C)COC(=O)N1CCN(c2cc(C(=O)NS(C)(=O)=O)nc3c2c(C2CCC2)nn3-c2ccc(F)cc2)CC1" ?
366.2%

Similarly, "CC(C)Oc1nn(C2CCCCC2)c2nc(C(=O)NS(=O)(=O)N(C)C)cc(-c3ccc(CN4CCN(C)CC4)cc3)c12" ?
146.8%

Similarly, "COCCN(CCOC)c1ccc(-c2cc(C(=O)NS(C)(=O)=O)nc3c2c(C2CCC2)nn3-c2ccccc2)cn1" ?
112.1%

Similarly, "CC(C)c1nn(C2CCCC2)c2nc(C(=O)NS(C)(=O)=O)cc(-c3ccc(N(C)C)nc3)c12" ?
126.75%

Similarly, "CC1(S(=O)(=O)NC(=O)c2cc(N3CCC(N4CCOCC4)CC3)c3c(C4CCC4)nn(-c4ccccc4)c3n2)CC1" ?
269.9%

Similarly, "CC(C)c1nn(-c2cccc(N(C)C)c2)c2nc(C(=O)NS(C)(=O)=O)cc(-c3ccc(N(C)C4CCOCC4)cc3)c12" ?
406.6%

Similarly, "COCCN1CCN(C2CCN(c3cc(C(=O)NS(=O)(=O)N(C)C)nc4c3c(C3CCC3)nn4-c3ccc(F)cc3)CC2)CC1" ?
272.6%

Similarly, "CC(C)c1nn(C2CCCCC2)c2nc(C(=O)NS(C)(=O)=O)cc(-c3ccc(N4CCC(F)(F)C4)nc3)c12" ?
152.75%

Similarly, "CCS(=O)(=O)NC(=O)c1cc(-c2ccc(N3CCOCC3)nc2)c2c(C(C)C)nn(-c3ccccc3)c2n1" ?
265.23%

Similarly, "CS(=O)(=O)NC(=O)c1cc(OC[C@H](F)C2CCOCC2)c2c(C3CCC3)nn(-c3ccccc3)c2n1" ?
120%

Similarly, "COCCS(=O)(=O)NC(=O)c1cc(N2CCC(N3CCCCC3)CC2)c2c(C3CCC3)nn(-c3ccc(F)cc3)c2n1" ?
246.55%

Similarly, "CS(=O)(=O)NC(=O)c1cc(N2CC3(CCCCO3)C2)c2c(C3CCC3)nn(-c3ccccc3)c2n1" ?
82.59%

Similarly, "CCOC(=O)N1CCC(NS(=O)(=O)NC(=O)c2cc(N3CCC(COC)CC3)c3c(C4CCC4)nn(-c4ccccc4)c3n2)CC1" ?
423.6%

Similarly, "CCS(=O)(=O)NC(=O)c1cc(-c2ccc(OC)cc2)c2c(C)nn(-c3ccc(C)c(Cl)c3)c2n1" ?
130.85%

Similarly, "O=C(NS(=O)(=O)N1CCOCC1)c1cc(N2CCC(N3CCOCC3)CC2)c2c(C3CCC3)nn(-c3ccccc3)c2n1" ?
202.9%
